Biological target: T1, TNFR1 (Homo sapiens, UniProt P19438)
T1 chain: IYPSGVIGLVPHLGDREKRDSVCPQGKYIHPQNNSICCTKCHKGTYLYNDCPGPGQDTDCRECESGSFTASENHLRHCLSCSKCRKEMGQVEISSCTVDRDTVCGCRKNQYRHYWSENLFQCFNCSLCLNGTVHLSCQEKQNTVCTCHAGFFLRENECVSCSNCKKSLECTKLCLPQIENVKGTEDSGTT
Assay: yeast display SC50
Reported apparent Kd (screen) values follow for various binders

binder	apparent Kd (screen), pM
L79R (designed binder) SMEEEVEKAAKEYEKKKKEAIEKHLEKLKAKDKEAAERFLKELEEAAKEYAKDEAKTMSEEEAKRRAKKYKEKVLLSERSEEEQKEIKEAEEKLVRTILKYVEEAAK	13800
E78L (designed binder) SMEEEVEKAAKEYEKKKKEAIEKHLEKLKAKDKEAAERFLKELEEAAKEYAKDEAKTMSEEEAKRRAKKYKEKVLLSLLSEEEQKEIKEAEEKLVRTILKYVEEAAK	790
K23T (designed binder) SMEEEVEKAAKEYEKKKKEAIETHLEKLKAKDKEAAERFLKELEEAAKEYAKDEAKTMSEEEAKRRAKKYKEKVLLSELSEEEQKEIKEAEEKLVRTILKYVEEAAK	446
K64E (designed binder) SMEEEVEKAAKEYEKKKKEAIEKHLEKLKAKDKEAAERFLKELEEAAKEYAKDEAKTMSEEEAERRAKKYKEKVLLSELSEEEQKEIKEAEEKLVRTILKYVEEAAK	593
